Assay: Acute toxicity, i.p., mice (DL50)
Type: in vivo
Conditions: mouse, in vivo, ip, i.p. injection, male Swiss mice; Wilcoxon method
property.label: LD50 (mg/kg)
State the answer as a number, implicitly in mg/kg.

* CCOC(CN1CCN(c2ccccc2OC)CC1)c1cccnc1 (racemic) [(r)] | 75

LD50 for CCOC(CN1CCN(c2ccccc2OC)CC1)c1cccnc1 (single isomer, unassigned; (+)) [(+)] is 65

All figures here come from patent US4692525A.
